Recorded values, source the supplement of paper PMC11451515.

Test system: NOMO1
protocol: AUC of viability dose-response curve (% viability x log10 dose units); higher = less sensitive
condition.label: HPLM + 10% dialyzed FBS; 48 h
reported.metric: AUC of viability dose-response curve
Enter a number only.

Worked examples follow.
>>> observed_measurement("CNC1CCC(N(Cc2cccc(-c3ccncc3)c2)C(=O)c2sc3c(F)ccc(F)c3c2Cl)CC1 (stereo not given)")
453
>>> observed_measurement("CCC(C)(C)c1ccc(CC(C)CN2C[C@@H](C)O[C@@H](C)C2)cc1 (stereo not given in full)")
422
>>> observed_measurement("Cc1c(NC(=O)OC[C@@H]2COCCN2)cn2ncnc(Nc3ccc4c(cnn4Cc4cccc(F)c4)c3)c12")
379

### Prompt Which value of AUC of viability dose-response curve has been reported for S=C1N\C=N/C2=C1[NH]C=N2 in the records?
### Response 425

### Prompt Query: AUC of viability dose-response curve; subject: CN1\C(=C(\O)C2=CC=CC=C2[S+]1([O-])=O)C(=O)NC3=NC=C(C)S3
### Response 476

* * *

System: NOMO1
protocol: cell viability relative to DMSO control; higher = less cytotoxic
condition.label: RPMI 5 mM glucose + 10% dialyzed FBS; 48 h; 0.19 µM
Item-by-item account of cell viability
Lab book: enter the figure in %, no units written.

Examples with answers:
>>> observed_measurement("C[C@@]12C[C@@]3(O)O[C@@H](O1)[C@]1(COC(=O)c4ccccc4)[C@H]3C[C@@]12O[C@@H]1O[C@H](CO)[C@@H](O)[C@H](O)[C@H]1O")
114
>>> observed_measurement("O=C(Nc1cc2cc[nH]c2cn1)c1ccccc1")
105

### Prompt Query (compound): C#C[C@]1(O)CC[C@H]2[C@@H]3CCc4cc(O)ccc4[C@H]3CC[C@@]21C ; field requested: cell viability
### Response 106

* * *

Test system: NOMO1
protocol: cell viability relative to DMSO control; higher = less cytotoxic
condition.label: RPMI 5 mM glucose + 10% FBS; 48 h; 5.12 µM
reported.metric: cell viability (%)
Write it as a number; the unit % goes unstated.

Sample answers from the record:
>>> observed_measurement("Nc1ncnc2c1c(-c1cnc3[nH]ccc3c1)nn2C1CCCC1")
66.7
>>> observed_measurement("CNC[C@H](O)c1ccc(O)c(O)c1")
80
>>> observed_measurement("CCn1c(-c2nonc2N)nc2cnc(Oc3cccc(NC(=O)c4ccc(OCCN5CCOCC5)cc4)c3)cc21")
82.4
>>> observed_measurement("COc1cc(OC)c(/C=C/[S+](=O)([O-])Cc2ccc(OC)c(NCC(=O)[O][Na])c2)c(OC)c1")
27
>>> observed_measurement("C/C=C1\\C2C=C(C)CC1(N)c1ccc(=O)[nH]c1C2 (configuration not stated)")
102

### Prompt Reported cell viability for C[N]1C=C(C2=C1C=CC=C2)\C3=C(\C(=O)NC3=O)C4=C5CC(CN)CC[N]5C6=C4C=CC=C6 (configuration not stated) : what is it?
### Response 96.8

### Prompt Could you share which cell viability value was measured for Nc1nc(N)c2nc(CNc3ccc(C(=O)NC(CCC(=O)O)C(=O)O)cc3)cnc2n1 (configuration not stated) ?
### Response 112

* * *

# key: entry, value: cell viability
System: SEM cells
protocol: cell viability relative to DMSO control; higher = less cytotoxic
condition.label: HPLM + 10% dialyzed FBS; 48 h; 0.19 µM
Hi! Could you send only the number? It should be in %, unit omitted.

For orientation, consider the following solved cases.
>>> observed_measurement("C#C[C@]1(O)CC[C@H]2[C@@H]3CCc4cc(O)ccc4[C@H]3CC[C@@]21C")
99.4
>>> observed_measurement("C[S+]([O-])(=O)C1=CC=C(C=C1)C/2=C(/C(=O)OC2)C3=CC=CC=C3")
115
>>> observed_measurement("Cc1cccc(Nc2nc(-c3ccncc3)cs2)c1")
126

### Prompt What value of cell viability has been recorded for this entry: Nc1nc(Cl)nc2c1ncn2[C@H]1C[C@H](O)[C@@H](CO)O1
### Response 15.7

### Prompt What value of cell viability has been reported for the following compound? CCOC(=O)C/1=C(O)/C(=O)N(CC2=CC=CC=C2)C1
### Response 108

### Prompt Consider the compound shown here: CC/1=C(/N2[C@H](SC1)[C@H](NC(=O)[C@H](N)\C3=C\C\C=C/C3)C2=O)C(O)=O What is its recorded cell viability?
### Response 97.1

### Prompt Entry C=CC[C@@H]1/C=C(\C)C[C@H](C)C[C@H](OC)[C@H]2O[C@@](O)(C(=O)C(=O)N3CCCC[C@H]3C(=O)O[C@H](/C(C)=C/[C@@H]3CC[C@@H](O)[C@H](OC)C3)[C@H](C)[C@@H](O)CC1=O)[C@H](C)C[C@@H]2OC has what cell viability?
### Response 111

### Prompt # cell viability lookup, item CC(C)C[C@H](NC(=O)[C@H](CCc1ccccc1)NC(=O)CN1CCOCC1)C(=O)N[C@@H](Cc1ccccc1)C(=O)N[C@@H](CC(C)C)C(=O)[C@@]1(C)CO1
### Response 7.08

### Prompt Reported cell viability, compound Cc1cn(-c2cc(NC(=O)c3ccc(C)c(Nc4nccc(-c5cccnc5)n4)c3)cc(C(F)(F)F)c2)cn1 : ____
### Response 109

* * *

Test system: NOMO1
protocol: cell viability relative to DMSO control; higher = less cytotoxic
condition.label: HPLM + 10% dialyzed FBS; 48 h; 0.19 µM
reported.metric: cell viability (%)
The reply should be a number in %, with the unit left off.

Recorded results for 6 compounds are shown here.
>>> observed_measurement("OC[C@H]1OCC(O1)[N@@]2C=CC(N)=NC2=O (some centres not stated)")
113
>>> observed_measurement("CC(C)C[C@H](NC(=O)[C@H](CCc1ccccc1)NC(=O)CN1CCOCC1)C(=O)N[C@@H](Cc1ccccc1)C(=O)N[C@@H](CC(C)C)C(=O)[C@@]1(C)CO1")
8.63
>>> observed_measurement("CN[C@@H]1[C@H](O)[C@H](NC)[C@H]2O[C@@]3(O)C(=O)C[C@@H](C)O[C@H]3O[C@@H]2[C@H]1O")
127
>>> observed_measurement("COc1cc2nccc(Oc3ccc(NC(=O)NC4CC4)c(Cl)c3)c2cc1C(N)=O")
100
>>> observed_measurement("CC(C)(C)c1[nH]cnc1/C=c1\\[nH]c(=O)/c(=C/c2ccccc2)[nH]c1=O")
37.5
>>> observed_measurement("COc1cc2ncnc(Nc3ccc(F)c(Cl)c3)c2cc1NC(=O)/C=C/CN1CCCCC1")
118

### Prompt Entry CN1\C(=C(\O)C2=CC=CC=C2[S+]1([O-])=O)C(=O)NC3=NC=C(C)S3 : reported cell viability = ?
### Response 116

### Prompt For the compound shown here, CCC[C@H]1C[C@H](C(=O)N[C@@H]([C@@H]2O[C@@H](SC)[C@@H](O)[C@@H](O)[C@H]2O)[C@H](C)Cl)N(C)C1 , give the reported cell viability.
### Response 121

### Prompt Given COc1ncc(-c2ccc3nccc(-c4ccnnc4)c3c2)cc1N[S+](=O)([O-])c1ccc(F)cc1F , state its recorded cell viability.
### Response 66.3

### Prompt Could you tell me which cell viability is on file for COc1ccc(-c2ccc3c(N4CCOC[C@@H]4C)nc(N4CCOC[C@@H]4C)nc3n2)cc1CO ?
### Response 64.6

### Prompt Sample COc1cc2ncnc(Nc3cc(Br)c(O)c(Br)c3)c2cc1OC — what was its cell viability?
### Response 102

### Prompt Suppose we examine the compound COc1ccc(-c2nc(N3CCOCC3)c3sc(CN(C)c4ncc(C(=O)NO)cn4)cc3n2)cn1 ; what cell viability value has been reported?
### Response 8.22

* * *

System: NOMO1
protocol: cell viability relative to DMSO control; higher = less cytotoxic
condition.label: RPMI 5 mM glucose + 10% dialyzed FBS; 48 h; 15.4 µM
reported.metric: cell viability (%)
Return type: number; implicit unit %.

These solved cases illustrate the format of a correct answer.
>>> observed_measurement("O=C(Nc1ccc(F)c(C(F)(F)F)c1)Nc1nnc(-c2ccncc2)s1")
114
>>> observed_measurement("O=C(Nc1c(Cl)cncc1Cl)c1ccc(OC(F)F)c(OCC2CC2)c1")
99.6
>>> observed_measurement("COC1=C2OC(=O)\\C=C/C2=CC3=C1OC=C3")
101

Proceeding to the next compound to report its cell viability.
### Prompt Look up cell viability: CC/1=C(/N2[C@H](SC1)[C@H](NC(=O)[C@H](N)\C3=C\C\C=C/C3)C2=O)C(O)=O
### Response 109

* * *

# cell viability listing for each entry below
Test system: SEM cells
protocol: cell viability relative to DMSO control; higher = less cytotoxic
condition.label: RPMI 5 mM glucose + 10% dialyzed FBS; 48 h; 46.1 µM

>>> observed_measurement("Cc1c(NC(=O)OC[C@@H]2COCCN2)cn2ncnc(Nc3ccc4c(cnn4Cc4cccc(F)c4)c3)c12")
"9.72%"

Next, consider the following compound.
### Prompt Consider the compound CC(N)C12CC3CC(CC(C3)C1)C2 (stereo not drawn) and give its measured cell viability.
### Response 110%
